Data provenance is patent US20190112392A1.

target_desc: human TCR(2XN9)/CD3 expressed on CHO-K1 cells (human)
experimental_details: flow cytometry, CHO-K1 human TCR(2XN9)/CD3 cells
pEC50: −log10 of the molar value.
readout_kind: pEC50

P. T0170061G01 (VHH, not shown: small tags and cut ends) VHH: EVQLVESGGGLVQPGGSLRLSCAASGEIGRINFYRWYRQAPGNQREVVATITIADKTDYADSAKGRFTISRDESRNMVYLQMSSLKPEDTAVYFCHAGSRLYPYDYWGQGTQVTVSS
Q. T0170068G05 (VHH, not shown: small tags and cut ends) VHH: VQLVEESGGGLVQPGGSLRLSCITSGETFKINIWGWYRQAPGKQRELVASLTIGGATNYADSVKGRFTISEDSAKNTVYLQMNSLKPEDTAVYFCNAKSRIYPYDYWGRGTQVTVSS
Larger number for pEC50: P , or Q ? Mark your answer with the label of the selected entry.
Q
